Reference source for all entries: PubChem BioAssay (NCI)

# Test system: HCT-116 colon
# Protocol summary: NCI-60 one-dose screen, 48 h
# Cond: 10 µM unless noted
Compounds without any hit were thinned out: in the full panel of roughly 83,000, 20% have a hit. Active and inactive are the calls of the source. How the source made its calls: active means growth percent below 10; inactive means the rest.
Log the outcome using a class from active, inactive

In this assay, the call recorded for COc1cc(NC(C)CCCN)c2nc(C)ccc2c1Oc1ccc(F)cc1 (stereo not drawn) was what?
inactive

In this assay, the call recorded for O=C(NC1CCS(=O)(=O)C1)c1ccc(C(=O)c2ccccc2)cc1 (stereo not drawn) was what?
inactive

In this assay, the call recorded for CCN(CC)CCCCCCCNc1c2ccc(Cl)cc2nc2ccc(OC)cc12 was what?
active

In this assay, the call recorded for C/C(=C\CCc1ccoc1)CC/C=C(\C)CCCNc1ccc(F)cc1 was what?
inactive

In this assay, the call recorded for CC1CN(/N=C/c2ccc([N+](=O)[O-])o2)C(=N)O1 (stereo not drawn) was what?
inactive

In this assay, the call recorded for COc1cc(/C(Cl)=C/C=C/C(=O)c2c(C)[n+]([O-])c3ccc(Cl)cc3[n+]2[O-])cc(OC)c1OC was what?
active

---

Entries and their measured growth follow.
# Tested on: 786-0 renal
# Protocol summary: NCI-60 one-dose screen, 48 h (100 = growth as untreated, 0 = no growth, -100 = all killed)
# Cond: 10 µM unless noted
This is part of a sample that, as a whole, favours compounds with a hit. Of some 83,000 tested, about 20% had one in any assay. Calls of active or inactive are those of the source. How the source made its calls: active means growth percent below 10; inactive means the rest.

Example entries begin here.
Compound	Measured on	growth
CC(=O)c1nn(-c2ccccc2)c(=Nc2ccccc2)cc1C	786-0 renal	107% (inactive)
O=C1/C(=C/c2ccccc2O)C(=S)SN1Cc1ccco1	786-0 renal	103% (inactive)
CNc1nc(NC2CCCC2)nc(Sc2ccc(OC)cc2)n1	786-0 renal	13% [100 µM] (inactive)

Tell me the measured growth of O=C(NC1CCCCC1)c1ccc(Nc2ncnc3c2cnn3-c2ccccc2)cc1 , please.
72.1% (inactive)

Tell me the measured growth of CCCCCCCCCCOC(C)=O , please.
114% (inactive)

Tell me the measured growth of Cc1ccc(/C=C/C(=O)c2ccc(F)cc2)s1 , please.
76.7% (inactive)

Tell me the measured growth of NS(=O)(=O)c1cc(C2(O)NC(=O)c3ccccc32)ccc1Cl (stereo not given) , please.
102% (inactive)

Tell me the measured growth of COc1ccc2c(c1)sc1nc(-c3ccc(N(C)C)cc3)cn12 , please.
89.7% (inactive)

Tell me the measured growth of CS(=O)(=O)N1CCN(Cc2cc3nc(-c4cccc5[nH]ncc45)nc(N4CCOCC4)c3s2)CC1 (tested in a mixture with another compound) , please.
-10.5% (active)

Tell me the measured growth of C[C@H]1O[C@@H](O[C@H]2[C@@H](O)C[C@H](O[C@H]3[C@@H](O)C[C@H](O[C@H]4CC[C@]5(C)C6CC[C@]7(C)[C@@H](C8=CC(=O)OC8)CC[C@]7(O)C6CC[C@@H]5C4)O[C@@H]3C)O[C@@H]2C)C[C@H](O)[C@@H]1O (stereo not given in full) , please.
-93.4% (active)

---

# System: SNB-19 CNS
# Protocol summary: NCI-60 one-dose screen, 48 h (100 = growth as untreated, 0 = no growth, -100 = all killed)
# Cond: 10 µM unless noted
Compounds without any hit were thinned out: in the full panel of roughly 83,000, 20% have a hit. Calls of active or inactive are those of the source. The calls were made as follows: active = growth percent below 10; inactive = the rest.
Quantity name: growth

Example entries begin here.
>>> df
                                   compound  quantity_name    endpoint_value
0  COc1ccc2c(c1)[n+](=O)c(C(=O)/C=C/c1cc(OC)c(OC)c(OC)c1)c(C)n2[O-]         growth  67.1% (inactive)
1  COc1cc(/C=C2\CN(C)CC3=C2Nc2nc(SC)[nH]c(=O)c2C3c2cc(OC)c(OC)c(OC)c2)cc(OC)c1OC (stereo not drawn)         growth  66.8% (inactive)
2                   CCCCNCCCN(CCCC)CCCNCCCC         growth  98.2% (inactive)

Tell me the measured growth of Cc1ccccc1NC(=O)NC(CC(N)=O)c1ccc2c(c1)nc(-c1cccc(Oc3ccc(C(C)(C)C)cc3)c1)n2CCCN1CCCCC1C (stereo not drawn) , please.
46.2% (inactive)

Tell me the measured growth of COc1c(Br)cc(C(c2cc(Br)c(OC)c(Br)c2)c2ccccc2C(=O)O)cc1Br , please.
95.9% (inactive)

Tell me the measured growth of CCN(CC)CCOCC[C@H]1CC[C@H]2[C@@H]3[C@H](C)Cc4cc(OS(N)(=O)=O)ccc4[C@H]3CC[C@]12C , please.
-94.4% (active)

---

# Test system: EKVX NSCLC
# Protocol summary: NCI-60 one-dose screen, 48 h (100 = growth as untreated, 0 = no growth, -100 = all killed)
# Cond: 10 µM unless noted
About 83,000 compounds went through this panel and 20% of them were active in at least one assay; those are over-represented in the sample as a whole.
Entries whose growth is below 30% take TRUE; entries at or above 30% take FALSE.

Here are 3 molecules together with their reported answers.
>>> df
                                   molecule  measured_on  assigned_class
0  CCCCCN(CCCCC)CCCNc1c2c(nc3ccc(Cl)cc13)CCCC2   EKVX NSCLC           FALSE
1  Cc1ccccc1NC(=O)NC(CC(N)=O)c1ccc2c(c1)nc(-c1cccc(Oc3ccc(C(C)(C)C)cc3)c1)n2CCCN1CCCCC1C (stereo not given)   EKVX NSCLC           FALSE
2  C(#Cc1ccccc1C#Cc1ccccn1)c1ccc(OCCCCCCOc2ccc(C#Cc3ccccc3C#Cc3ccccn3)cc2)cc1   EKVX NSCLC           FALSE

Please check: growth for O=C(Nc1nc2ccc(OC(F)(F)F)cc2s1)c1ccc(F)cc1 , strictly under 30% or not?
TRUE

---

Entries and their measured growth follow.
# System: SNB-75 CNS
# Protocol summary: NCI-60 one-dose screen, 48 h (100 = growth as untreated, 0 = no growth, -100 = all killed)
# Cond: 10 µM unless noted
About 83,000 compounds went through this panel and 20% of them were active in at least one assay; those are over-represented in the sample as a whole.
Note: unit % is implicit; provide only the numeric part.

>>> df
            structure_smiles_string  measured_on  endpoint_value
0  COc1cccc(/C=N\NC(=O)c2ccncc2)c1O   SNB-75 CNS            57.1

Tell me the measured growth of N#Cc1ncc(-c2ccc(C(F)(F)F)cc2)c(NC2CCCCCC2)n1 , please.
49.7

Tell me the measured growth of O=[N+]([O-])c1cc([N+](=O)[O-])c(N2CCCC2)cc1NN=C(c1ccc(O)cc1)c1ccc(O)cc1 , please.
71.8

Tell me the measured growth of CCCCCCCCCCN1CCC(N2CCCCC2)CC1 , please.
-47.8

Tell me the measured growth of COc1ccc(-c2nnc3c4[nH]cnc4ncn23)c(OC)c1 , please.
39.2

Tell me the measured growth of CNNc1ncnc2c1cnn2-c1ccc(S(N)(=O)=O)cc1 , please.
104

---

# Test system: DU-145 prostate
# Protocol summary: NCI-60 one-dose screen, 48 h
# Cond: 10 µM unless noted
This is part of a sample that, as a whole, favours compounds with a hit. Of some 83,000 tested, about 20% had one in any assay. Activity calls are given as the source filed them. Rule for the calls: active = growth percent below 10; inactive = the rest.
Log the outcome using a class from 1 = active, -1 = inactive

Here are 3 molecules together with their reported answers.
                             molecule  assigned_class
0       O=C(c1ccc(Cl)cc1)c1ccc(Cl)cc1              -1
1   CN(C)c1ccc(-c2nc3ncc(Br)cc3o2)cc1              -1
2  COc1cccc(CCN2C(=O)CCC3=C2CCC3=O)c1              -1

In this assay, the call recorded for CCCCCCCCN(CCO)CCCCCCCC was what?
-1

---

# Tested on: UO-31 renal
# Protocol summary: NCI-60 one-dose screen, 48 h
# Cond: 10 µM unless noted
This is part of a sample that, as a whole, favours compounds with a hit. Of some 83,000 tested, about 20% had one in any assay. The source made the active and inactive calls. How the source made its calls: active means growth percent below 10; inactive means the rest.
Log the outcome using a class from active, inactive

Here are 3 molecules together with their reported answers.
Molecule	Measured on	Assigned class
C1CCC(C(CC2CCCCN2)C2CCCCC2)CC1 (centres undefined)	UO-31 renal	inactive
O=CNc1ccc2c(c1)Cc1cc([N+](=O)[O-])ccc1-2	UO-31 renal	inactive
Cc1ccc(S(=O)(=O)N2CCN(C(=O)CSc3nc4ccc(C)cc4[nH]3)CC2)cc1	UO-31 renal	inactive

In this assay, the call recorded for CCOC(CNCc1cc(C)c2[nH]c3ccccc3c2c1C)OCC was what?
inactive

In this assay, the call recorded for CCCCCc1c(C)[nH]c(/C=C2\N=C(c3ccc[nH]3)C=C2Oc2ccccc2)c1C was what?
active

In this assay, the call recorded for COc1cc(/C=C2\CN(C)CC3=C2Nc2nc(SC)[nH]c(=O)c2C3c2cc(OC)c(OC)c(OC)c2)cc(OC)c1OC (centres undefined) was what?
inactive

In this assay, the call recorded for c1ccc2c(-c3nc4ccccc4[nH]3)cccc2c1 was what?
inactive

In this assay, the call recorded for COc1cc(/C=N/NC(=O)c2ccc(C(F)(F)F)nc2Nc2ccc(Cl)cc2C)ccc1O was what?
active

In this assay, the call recorded for CN[C@@H]1C(OC2[C@H](O[C@H]3[C@H](O)[C@@H](O)[C@H](N=C(N)N)[C@@H](O)[C@@H]3N=C(N)N)OC(C)[C@]2(O)CO)OC(CO)C(O)C1O (some centres undefined) was what?
inactive
